- System: MDA-MB-435
- method_notes: NCI one-dose SRB anti-proliferative screen
- Format: cell-based
- details: Homo sapiens; MDA-MB-435, Melanoma; NCI one dose; read-out: Cell growth inhibition %
measured_property: inhibition at 10 µM (%)
Kindly answer with a numeric value in %, unit omitted.

Here are 3 compounds together with their reported answers.
[
  {
    "smiles_data": "O=C(CSc1nnc(-c2ccc3[nH]c(-c4ccccc4)nc3c2)o1)Nc1ccc(C(=O)/C=C/c2ccc(Cl)cc2)cc1",
    "unit_label": "%",
    "value_measured": 0
  },
  {
    "smiles_data": "COc1ccc(-c2nc3cc(-c4nnc(SCC(=O)Nc5ccc(C(=O)/C=C/c6ccccc6)cc5)o4)ccc3[nH]2)cc1",
    "unit_label": "%",
    "value_measured": 33.6
  },
  {
    "smiles_data": "COc1ccc(-c2nc3cc(-c4nnc(SCC(=O)Nc5ccc(C(=O)/C=C/c6ccc(OC)c(OC)c6)cc5)o4)ccc3[nH]2)cc1",
    "unit_label": "%",
    "value_measured": 6.15
  }
]

Request the reported inhibition at 10 µM associated with `COc1ccc(/C=C/C(=O)c2ccc(NC(=O)CSc3nnc(-c4ccc5[nH]c(-c6ccc(OC)cc6)nc5c4)o3)cc2)cc1`
7.11
